Tgt: recombinant human A2A receptors (hA2A) (Homo sapiens)
Sequence (P29274 whole entry): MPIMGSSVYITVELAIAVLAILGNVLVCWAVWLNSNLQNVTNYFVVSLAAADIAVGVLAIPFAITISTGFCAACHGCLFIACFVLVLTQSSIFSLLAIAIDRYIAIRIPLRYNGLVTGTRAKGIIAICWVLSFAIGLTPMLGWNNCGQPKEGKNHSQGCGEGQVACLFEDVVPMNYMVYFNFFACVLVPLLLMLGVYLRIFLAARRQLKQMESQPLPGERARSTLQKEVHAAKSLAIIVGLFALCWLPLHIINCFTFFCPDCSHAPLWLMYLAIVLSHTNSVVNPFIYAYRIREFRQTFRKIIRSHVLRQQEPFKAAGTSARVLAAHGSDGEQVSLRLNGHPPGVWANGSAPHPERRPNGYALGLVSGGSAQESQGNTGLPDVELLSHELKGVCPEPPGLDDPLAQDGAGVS
Assay notes: Radioligand binding (125I-ZM241385) at recombinant human A2A receptors in HEK-293 cells
Recorded endpoint: Ki (nM)
Value expressed in nM; do not type the unit.

{"Cpd smiles": "CCCn1c(=O)c2[nH]c(-c3ccc(OCC(=O)NN4C(=O)[C@H]5CC=CC[C@H]5C4=O)cc3)nc2n(CCC)c1=O", "Tgt": "recombinant human A2A receptors (hA2A) (Homo sapiens)", "Ki (nM)": 301}

Data request, read-out Ki, for `CCCn1c(=O)c2[nH]c(-c3ccc(OCC(=O)NN4C(=O)CC[C@H](NC(=O)C(F)(F)F)C4=O)cc3)nc2n(CCC)c1=O`
178
